Test system: HepG2
Method: Compound is evaluated for the inhibition of cholesterol synthesis in HepG2 cells for an incubation time of 6 (h)
Format: functional, cell-based
Test Settings: Homo sapiens
Experimental Readout: IC50 (µM)
Express it in µM; write the number only.

Enquiry: IC50 for CC(C)=CCC/C(C)=C/CC/C(C)=C/CCC1(C)CCc2c(C)c(O)c(C)c(C)c2O1 (racemic) ?
Return: 110

Enquiry: Next up: CC(C)=CCC/C(C)=C/CC/C(C)=C/CCC1(C)CCc2cc(O)c(C)c(C)c2O1 (racemic)
Return: 3

====

Species on record: Gallus gallus
Method: Compound is evaluated for the effect on lipid metabolism in 6-week-old male chickens at a concentration of 20 ppm in the diet and measured for LDL cholesterol
Assay type: functional
So I've got a bunch of compounds here, and I need their LDL cholesterol values.
Provide the reading as a plain figure in mg 100ml-1.

Enquiry: Dear colleague, I am looking for the recorded LDL cholesterol of the following compound: CC(C)=CCC/C(C)=C/CC/C(C)=C/CC[C@]1(C)CCc2cc(O)cc(C)c2O1 [DELTA-TOCOTRIENOL]
Return: 41

Enquiry: Moving on to the next compound: CC(C)=CCC/C(C)=C/CC/C(C)=C/CC[C@]1(C)CCc2cc(O)c(C)c(C)c2O1 [GAMMA-TOCOTRIENOL]
Return: 41

Enquiry: Repeat for the following compound: CC(C)=CCC/C(C)=C/CC/C(C)=C/CC[C@]1(C)CCc2c(C)c(O)c(C)c(C)c2O1 [ALPHA-TOCOTRIENOL]
Return: 55

Enquiry: Query Cc1c(C)c2c(c(C)c1O)CC[C@@](C)(CCC[C@H](C)CCC[C@H](C)CCCC(C)C)O2 [ALPHA-TOCOPHEROL] next
Return: 72
